Parameter: MBC. Scope: all listed entries.
Test system: Escherichia coli
MEASUREMENT_NOTES: Bactericidal activity against Escherichia coli ATCC 25922 after 18 to 24 hr
Assay type: functional
RECORDED_ENDPOINT: MBC

* Cc1cc(O)c(C(c2c(O)cc(C)oc2=O)c2coc3ccccc3c2=O)c(=O)o1 | 50 µg/mL
* O=c1oc2ccccc2c(O)c1C(c1c(O)c2ccccc2oc1=O)c1coc2ccccc2c1=O | 50 µg/mL
* Cc1[nH]n(-c2ccccc2)c(=O)c1C(c1coc2ccccc2c1=O)c1c(C)[nH]n(-c2ccccc2)c1=O | 100 µg/mL
* Cc1cc2oc(=O)c(C(c3c(O)c4cc(C)c(C)cc4oc3=O)c3coc4ccccc4c3=O)c(O)c2cc1C | 50 µg/mL

----------
Test system: Candida albicans
MEASUREMENT_NOTES: Antifungal activity against Candida albicans assessed as growth inhibition after 3 to 4 days by disk diffusion assay
Assay type: functional
Parameter: diameter of the inhibition zone (DIZ). Scope: all listed entries.
RECORDED_ENDPOINT: diameter of the inhibition zone (DIZ)

* O=c1oc2ccccc2c(O)c1C(c1c(O)c2ccccc2oc1=O)c1coc2ccccc2c1=O | 19.1 mm
* Cc1cc2oc(=O)c(C(c3c(O)c4cc(C)c(C)cc4oc3=O)c3coc4ccccc4c3=O)c(O)c2cc1C | 27.2 mm
* Cc1cc(O)c(C(c2c(O)cc(C)oc2=O)c2coc3ccccc3c2=O)c(=O)o1 | 24.1 mm
* Cc1[nH]n(-c2ccccc2)c(=O)c1C(c1coc2ccccc2c1=O)c1c(C)[nH]n(-c2ccccc2)c1=O | 23.9 mm

----------
Parameter: diameter of the inhibition zone (DIZ). Scope: all listed entries.
Tested on: Streptococcus pyogenes
MEASUREMENT_NOTES: Antibacterial activity against Streptococcus pyogenes assessed as growth inhibition after 24 hr by disk diffusion assay
Assay type: functional
RECORDED_ENDPOINT: diameter of the inhibition zone (DIZ) (mm)

- Cc1[nH]n(-c2ccccc2)c(=O)c1C(c1coc2ccccc2c1=O)c1c(C)[nH]n(-c2ccccc2)c1=O: 16.1
- O=c1oc2ccccc2c(O)c1C(c1c(O)c2ccccc2oc1=O)c1coc2ccccc2c1=O: 21.5
- Cc1cc2oc(=O)c(C(c3c(O)c4cc(C)c(C)cc4oc3=O)c3coc4ccccc4c3=O)c(O)c2cc1C: 21.2
- Cc1cc(O)c(C(c2c(O)cc(C)oc2=O)c2coc3ccccc3c2=O)c(=O)o1: 19.1

----------
Parameter: MIC. Scope: all listed entries.
Tested on: Talaromyces marneffei
MEASUREMENT_NOTES: Antifungal activity against Talaromyces marneffei assessed as growth inhibition after 48 hr by macrodilution method
Type: functional
RECORDED_ENDPOINT: MIC (µg/mL)

* Cc1cc2oc(=O)c(C(c3c(O)c4cc(C)c(C)cc4oc3=O)c3coc4ccccc4c3=O)c(O)c2cc1C | 12.5
* O=c1oc2ccccc2c(O)c1C(c1c(O)c2ccccc2oc1=O)c1coc2ccccc2c1=O | 25
* Cc1cc(O)c(C(c2c(O)cc(C)oc2=O)c2coc3ccccc3c2=O)c(=O)o1 | 25
* COC1=CC(=O)C[C@@H](C)[C@]12Oc1c(Cl)c(OC)cc(OC)c1C2=O [GRISEOFULVIN] | 12.5
* Cc1[nH]n(-c2ccccc2)c(=O)c1C(c1coc2ccccc2c1=O)c1c(C)[nH]n(-c2ccccc2)c1=O | 25
